Exercise: for every item that follows, state its recorded pIC50.
- ASSAY_SYSTEM: hPXR (Homo sapiens (Human))
- ASSAY_METHOD_TEXT: cell-based hPXR antagonistic assay
Numbers only, as −log10 of the molar value.

Guide cases for pIC50, answers given:
COc1ccc(OC)c(-n2nnc(C(=O)Nc3cc(OCCCC(=O)O)cc(C(C)(C)C)c3)c2C)c1 ... 6.04
C#CCCCOc1cc(NC(=O)c2nnn(-c3cc(OC)ccc3OC)c2C)cc(C(C)(C)C)c1 ... 6.72
COc1ccc(OC)c(-n2nnc(C(=O)Nc3cc(N=C=S)cc(C(C)(C)C)c3)c2C)c1 ... 4.52
CCCCNc1cc(NC(=O)c2nnn(-c3cc(C)ccc3OC)c2C)cc(C(C)(C)C)c1 ... 6.82

Shifting focus to the compound that follows.
Recorded pIC50 for COc1ccc(OC)c(-n2nnc(C(=O)Nc3cc(OCC(=O)OC(C)(C)C)cc(C(C)(C)C)c3)c2C)c1 with hPXR (Homo sapiens (Human)), please? 6.37

----------
Exercise: for every item that follows, state its recorded inhibition at 10 µM.
- ASSAY_SYSTEM: hPXR (Homo sapiens (Human), UniProt O75469)
- Sequence (O75469 whole entry): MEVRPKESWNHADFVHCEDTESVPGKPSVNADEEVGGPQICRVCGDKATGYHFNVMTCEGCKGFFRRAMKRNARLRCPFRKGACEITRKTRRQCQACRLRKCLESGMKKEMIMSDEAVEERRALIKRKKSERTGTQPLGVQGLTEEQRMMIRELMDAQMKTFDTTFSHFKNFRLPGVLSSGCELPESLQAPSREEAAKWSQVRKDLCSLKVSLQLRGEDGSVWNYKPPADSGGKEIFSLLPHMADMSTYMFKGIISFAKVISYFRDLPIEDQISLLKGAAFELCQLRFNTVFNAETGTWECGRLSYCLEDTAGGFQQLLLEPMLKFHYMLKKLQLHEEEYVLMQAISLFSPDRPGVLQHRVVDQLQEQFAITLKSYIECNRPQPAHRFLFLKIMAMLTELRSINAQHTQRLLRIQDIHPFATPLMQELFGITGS
- ASSAY_METHOD_TEXT: cell-based hPXR inverse agonistic assay
- TEST_SETTINGS: read-out: Inverse agonist (% inhibition at 10 μM)
Give bare numbers, in %.

CCC[C@H](CC)Oc1ccc(C(C)(C)C)cc1NC(=O)c1nnn(-c2cc(OC)ccc2OC)c1C [M1] ... 165

Please report inhibition at 10 µM for every entry that follows.
1. COc1cc(NC(=O)c2nnn(-c3cc(Cl)ccc3OC)c2C)cc(C(C)(C)C)c1 [F5]
2. CCCCOc1cc(NC(=O)c2nnn(-c3cc(C)ccc3OC)c2C)cc(C(C)(C)C)c1 [G9]
3. CCCC(CC)Oc1ccc(C(C)(C)C)cc1NC(=O)c1nnn(-c2cc(OC)ccc2OC)c1C (centres unmarked) [B34]
4. COc1ccc(OC)c(-n2nnc(C(=O)Nc3cc(OCCCCI)cc(C(C)(C)C)c3)c2C)c1 [D17]
5. CCC[C@H](CC)Oc1ccc(C(C)(C)C)cc1NC(=O)c1nnn(-c2cc(OC)c(F)cc2OC)c1C [M10]
6. COc1ccc(OC)c(-n2nnc(C(=O)Nc3cc(C(C)(C)C)ccc3OCCOCCOCCOCCOCCOCCOc3ccc(C(C)(C)C)cc3NC(=O)c3nnn(-c4cc(OC)ccc4OC)c3C)c2C)c1 [B23]

1: 80; 2: 96; 3: 147; 4: 120; 5: 92; 6: 45

Please report inhibition at 10 µM for every entry that follows.
1. COc1ccc(Cl)cc1-n1nnc(C(=O)Nc2cc(N)cc(C(C)(C)C)c2)c1C [F2]
2. COc1ccc(OC)c(-n2nnc(C(=O)Nc3cc(C(C)(C)C)ccc3OCCOCCOCCOCCO)c2C)c1 [B10]
3. COc1ccc(OC)c(-n2nnc(C(=O)Nc3cc(C(C)(C)C)ccc3OCCCCN3CCN(C)CC3)c2C)c1 [B22]
4. COc1ccc(OC)c(-n2nnc(C(=O)Nc3cc(OCCCCCCCC=O)cc(C(C)(C)C)c3)c2C)c1 [D26]
5. CCC[C@@H](CC)Oc1ccc(C(C)(C)C)cc1NC(=O)c1nnn(-c2cc(OC)ccc2OC)c1C [M2]
6. COc1ccc(C)cc1-n1nnc(C(=O)Nc2cc(C(C)(C)C)cc(C(C)(C)C)c2)c1C [G4]
7. COc1ccc(C)cc1-n1nnc(C(=O)Nc2ccc(O)c(C(C)(C)C)c2)c1C [G2]
8. CCCCNc1cc(NC(=O)c2nnn(-c3cc(C)ccc3OC)c2C)cc(C(C)(C)C)c1 [G6]

[101, 95, 168, 111, 130, 101, 115, 79]

Please report inhibition at 10 µM for every entry that follows.
1. CCCCCCCCOc1cc(NC(=O)c2nnn(-c3cc(OC)ccc3OC)c2C)cc(C(C)(C)C)c1 [D20]
2. COc1ccc(OC)c(-n2nnc(C(=O)Nc3cc(C(C)(C)C)ccc3OCCCCCCCCI)c2C)c1 [B19]

1. 104
2. 95
